From: paper PMC5923425

Biological target: NCBP3 1–282 (Homo sapiens, UniProt Q53F19)
Construct: N-terminal region with putative RRM domain, residues 1-282, pETM11, E. coli Rosetta 2, His6 tag cleaved with TEV
Sequence (Q53F19 1-282): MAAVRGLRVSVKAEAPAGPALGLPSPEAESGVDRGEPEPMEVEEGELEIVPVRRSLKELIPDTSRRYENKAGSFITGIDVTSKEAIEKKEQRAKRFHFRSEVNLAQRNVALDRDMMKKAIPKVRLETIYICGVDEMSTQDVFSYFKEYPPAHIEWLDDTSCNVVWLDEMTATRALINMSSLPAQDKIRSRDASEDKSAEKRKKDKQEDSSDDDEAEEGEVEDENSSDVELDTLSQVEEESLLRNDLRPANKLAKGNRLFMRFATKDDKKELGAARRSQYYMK
Assay: isothermal titration calorimetry
Type: binding
Description: isothermal titration calorimetry on NCBP3 1–282
measured-metric: Kd (µM)
Use µM as the unit, but write only the number.

Task: Any idea what its Kd is? The molecule is C[n+]1cn([C@@H]2O[C@H](COP(=O)(O)OP(=O)(O)OP(=O)(O)O)[C@@H](O)[C@H]2O)c2nc(N)[nH]c(=O)c21
Result: 8.3
